The measured values listed here are drawn from ChEMBL document CHEMBL3044932.

Assignment: determine reported EC50 for the given compounds.
Tested on: KB
Assay: Cytotoxicity against Homo sapiens (human) KB cells after 72 hr by MTT assay
Assay type: functional
Conditions: read-out: ED50 (the source's name)

Use these answered entries as a reference point.
CN(C)c1ccc(/C=C2\C(=O)N(c3c(Cl)cccc3Cl)c3ccccc32)cc1 :: 15 µg/mL
O=C1Cc2ccccc2N1c1c(Cl)cccc1Cl :: 100 µg/mL
O=C1/C(=C\c2ccc(Cl)cc2)c2ccccc2N1c1c(Cl)cccc1Cl :: 2 µg/mL

I have 2 compounds here; please give me EC50 for each one.
1. Cc1ccc2nc(Cl)c(/C=C3\C(=O)N(c4c(Cl)cccc4Cl)c4ccccc43)cc2c1
2. COc1ccc(/C=C2\C(=O)N(c3c(Cl)cccc3Cl)c3ccccc32)cc1

1: 100 µg/mL; 2: > 100 µg/mL

----------
Tested on: HuTu80
Assay: Cytotoxicity against Homo sapiens (human) HuTu 80 cells after 72 hr by MTT assay
Assay type: functional
Conditions: HuTu80, 72 h, read-out: ED50 (the source's name)
Lab note: anything with EC50 below 8 µg/mL is marked 1; values at 8 µg/mL or higher are marked 0.

O=C1/C(=C\c2cccc(Cl)c2)c2ccccc2N1c1c(Cl)cccc1Cl :: 1
O=C1/C(=C\c2ccccc2Cl)c2ccccc2N1c1c(Cl)cccc1Cl :: 0

Now consider the entry below.
Please let me know if O=C1/C(=C\c2ccco2)c2ccccc2N1c1c(Cl)cccc1Cl shows EC50 below 8 µg/mL.
0

----------
Assignment: determine reported EC50 for the given molecules.
Test system: KB
Test: Cytotoxicity against Homo sapiens (human) KB cells after 72 hr by MTT assay
Assay type: functional
Conditions: read-out: ED50 (the source's name)
Answers are plain numbers, in µg/mL.

O=C1/C(=C\c2cc3ccccc3nc2Cl)c2ccccc2N1c1c(Cl)cccc1Cl :: 10
O=C1/C(=C\c2ccc(F)cc2)c2ccccc2N1c1c(Cl)cccc1Cl :: 5
O=C1/C(=C\c2cccc(Br)c2)c2ccccc2N1c1c(Cl)cccc1Cl :: 2

I have 5 molecules here; please give me EC50 for each one.
1. Cc1ccc2nc(Cl)c(/C=C3\C(=O)N(c4c(Cl)cccc4Cl)c4ccccc43)cc2c1C
2. O=C1/C(=C\c2c(Cl)cccc2Cl)c2ccccc2N1c1c(Cl)cccc1Cl
3. O=C1/C(=C\c2cccc(Oc3ccccc3)c2)c2ccccc2N1c1c(Cl)cccc1Cl
4. O=C1/C(=C\c2ccccc2)c2ccccc2N1c1c(Cl)cccc1Cl
5. O=C1/C(=C\c2ccco2)c2ccccc2N1c1c(Cl)cccc1Cl

1. 10
2. 50
3. 5
4. 10
5. 5

----------
Assignment: determine reported EC50 for the given compounds.
Tested on: MCF7
Assay: Cytotoxicity against Homo sapiens (human) MCF7 cells after 72 hr by MTT assay
Assay type: functional
Details: MCF7, 72 h, read-out: ED50 (the source's name)
Numbers only, in µg/mL.

O=C1/C(=C\c2ccc(O)cc2)c2ccccc2N1c1c(Cl)cccc1Cl :: 20
O=C1/C(=C\c2ccccc2)c2ccccc2N1c1c(Cl)cccc1Cl :: 10
O=C1/C(=C\c2ccc(Cl)cc2)c2ccccc2N1c1c(Cl)cccc1Cl :: 5

Okay, next one:
EC50 recorded for this compound, O=C1/C(=C\c2ccc(F)cc2)c2ccccc2N1c1c(Cl)cccc1Cl , is 9

----------
System: KB
Test: Cytotoxicity against Homo sapiens (human) KB cells after 72 hr by MTT assay
Assay type: functional
Conditions: read-out: ED50 (the source's name)
observable: EC50 (µg/mL)
Numbers only, in µg/mL.

O=C1/C(=C\c2ccccc2Cl)c2ccccc2N1c1c(Cl)cccc1Cl :: 5
O=C1/C(=C\c2ccccc2[N+](=O)[O-])c2ccccc2N1c1c(Cl)cccc1Cl :: 1
O=C1/C(=C\c2cccc(Cl)c2)c2ccccc2N1c1c(Cl)cccc1Cl :: 2
COc1ccc(/C=C2\C(=O)N(c3c(Cl)cccc3Cl)c3ccccc32)cc1OC :: 10

Okay, next one:
KB assay, molecule O=C1/C(=C\c2ccc(O)cc2)c2ccccc2N1c1c(Cl)cccc1Cl , recorded EC50 = 2

----------
Test system: MCF7
Experiment: Cytotoxicity against Homo sapiens (human) MCF7 cells after 72 hr by MTT assay
Assay type: functional
Conditions: MCF7, 72 h, read-out: ED50 (the source's name)
observable: EC50

Use these answered entries as a reference point.
O=C1/C(=C\c2cccc(Br)c2)c2ccccc2N1c1c(Cl)cccc1Cl :: 5 µg/mL
Cc1ccc2nc(Cl)c(/C=C3\C(=O)N(c4c(Cl)cccc4Cl)c4ccccc43)cc2c1 :: > 100 µg/mL

I have 5 molecules here; please give me EC50 for each one.
1. O=C1/C(=C\c2ccccc2Cl)c2ccccc2N1c1c(Cl)cccc1Cl
2. Cc1ccc2nc(Cl)c(/C=C3\C(=O)N(c4c(Cl)cccc4Cl)c4ccccc43)cc2c1C
3. O=C1/C(=C\c2cccc(Oc3ccccc3)c2)c2ccccc2N1c1c(Cl)cccc1Cl
4. COc1ccc(/C=C2\C(=O)N(c3c(Cl)cccc3Cl)c3ccccc32)cc1OC
5. O=C1/C(=C\c2c(Cl)cccc2Cl)c2ccccc2N1c1c(Cl)cccc1Cl

["9 µg/mL", "> 100 µg/mL", "100 µg/mL", "10 µg/mL", "> 100 µg/mL"]

----------
Assignment: determine reported EC50 for the given compounds.
Tested on: MOLT-4
Experiment: Cytotoxicity against Homo sapiens (human) MOLT4 cells after 72 hr by MTT assay
Assay type: functional
Conditions: MOLT-4, 72 h, read-out: ED50 (the source's name)
One number for each entry, in µg/mL.

O=C1/C(=C\c2cccc(Br)c2)c2ccccc2N1c1c(Cl)cccc1Cl :: 7

I have 5 compounds here; please give me EC50 for each one.
1. O=C1/C(=C\c2ccccc2Cl)c2ccccc2N1c1c(Cl)cccc1Cl
2. O=C1/C(=C\c2ccccc2[N+](=O)[O-])c2ccccc2N1c1c(Cl)cccc1Cl
3. O=C1/C(=C\c2ccccc2)c2ccccc2N1c1c(Cl)cccc1Cl
4. O=C1/C(=C\c2cccc(Cl)c2)c2ccccc2N1c1c(Cl)cccc1Cl
5. O=C1/C(=C\c2cccc(Oc3ccccc3)c2)c2ccccc2N1c1c(Cl)cccc1Cl

[7, 6, 7, 6, 6]

----------
Assignment: determine reported EC50 for the given molecules.
Tested on: HuTu80
Assay: Cytotoxicity against Homo sapiens (human) HuTu 80 cells after 72 hr by MTT assay
Format: functional
Settings: HuTu80, 72 h, read-out: ED50 (the source's name)
Answers are plain numbers, in µg/mL.

O=C1/C(=C\c2cccc(Oc3ccccc3)c2)c2ccccc2N1c1c(Cl)cccc1Cl :: 10
O=C1/C(=C\c2cccc3ccccc23)c2ccccc2N1c1c(Cl)cccc1Cl :: 10

Okay, next one:
EC50 recorded for this molecule, O=C1/C(=C\c2ccc(O)cc2)c2ccccc2N1c1c(Cl)cccc1Cl , is 25

----------
System: HuTu80
Test: Cytotoxicity against Homo sapiens (human) HuTu 80 cells after 72 hr by MTT assay
Assay type: functional
Conditions: HuTu80, 72 h, read-out: ED50 (the source's name)
Assignment: determine reported log10 EC50 for the given compounds.
Log10 applied to EC50; unit prior to transform: µg/mL.

Use these answered entries as a reference point.
O=C1/C(=C\c2c(Cl)cccc2Cl)c2ccccc2N1c1c(Cl)cccc1Cl :: 2.00
O=C1/C(=C\c2ccc(F)cc2)c2ccccc2N1c1c(Cl)cccc1Cl :: 0.90
O=C1/C(=C\c2ccc(Cl)cc2)c2ccccc2N1c1c(Cl)cccc1Cl :: 0.78
O=C1/C(=C\c2ccccc2)c2ccccc2N1c1c(Cl)cccc1Cl :: 0.90
O=C1/C(=C\c2ccccc2[N+](=O)[O-])c2ccccc2N1c1c(Cl)cccc1Cl :: 1.00

Okay, next one:
log10 EC50 recorded for this compound, O=C1/C(=C\c2cccc(Br)c2)c2ccccc2N1c1c(Cl)cccc1Cl , is 0.85

----------
Tested on: HuTu80
Experiment: Cytotoxicity against Homo sapiens (human) HuTu 80 cells after 72 hr by MTT assay
Type: functional
Details: HuTu80, 72 h, read-out: ED50 (the source's name)
Assignment: determine reported EC50 for the given molecules.

COc1ccc(/C=C2\C(=O)N(c3c(Cl)cccc3Cl)c3ccccc32)cc1OC :: < 1 µg/mL
COc1ccc(/C=C2\C(=O)N(c3c(Cl)cccc3Cl)c3ccccc32)cc1 :: > 100 µg/mL

EC50 recorded for this molecule, CN(C)c1ccc(/C=C2\C(=O)N(c3c(Cl)cccc3Cl)c3ccccc32)cc1 , is < 1 µg/mL
